System: HCT-116 colon
assay_text: NCI-60 one-dose screen, 48 h (100 = growth as untreated, 0 = no growth, -100 = all killed)
assay_context: 10 µM unless noted
This is part of a sample that, as a whole, favours compounds with a hit. Of some 83,000 tested, about 20% had one in any assay.
readout_label: growth (%)
Quick reminder: number only, in %, skip the unit.

Sample "O=S(=O)(Nc1ccc(F)cc1F)c1ccc(-c2cnc(C3CC3)o2)cc1" ; growth observed: 21.2

"CC1CCN(CCOc2ccc(CNc3ccc4nc(CCC5CCCCC5)[nH]c4c3)cc2)CC1" yielded growth of 13.7

// field: growth; key: O=C(c1nn(-c2ccccc2)c2c1CC(NCc1ccc(F)cc1)CC2)N1CCCCC1 (stereo not given) ; value = 90.5

Briefly, growth measured for "[O-]/[N+](=C\c1ccc(-n2cc(Cc3ccccc3Cc3cn(-c4ccc(/C=[N+](/[O-])c5ccccc5)cc4)nn3)nn2)cc1)c1ccccc1" : 91.2

The value of growth measured for the compound "COc1ccc(C2=C(Br)C(=O)c3nc(C)ccc3C2=O)cc1" turned out to be 74.1

compound "O=C(CN1C(=O)S/C(=C\c2ccccc2)C1=O)Nc1ncc(Cc2ccccc2Cl)s1" , growth observed: 94.5

// growth lookup, compound = "COc1ccc(NC2=C(I)C(=O)c3ncccc3C2=O)cc1" , result: 2.09

Form: compound = "CCn1c(SCC(=O)N/N=C(\C)c2ccc(Cl)cc2)nc2c1c(=O)n(C)c(=O)n2C" ; growth = 102

Lab note: "C#CCOc1cccc(Nc2ncnc3ccc(NC(=O)C=C)cc23)c1" gave growth of 32.8

The recorded growth for "CCOC(=O)n1ccn(C)c1=S" is 94.4

###

Tested on: MALME-3M melanoma
assay_text: NCI-60 one-dose screen, 48 h (100 = growth as untreated, 0 = no growth, -100 = all killed)
assay_context: 10 µM unless noted
Method: Cells are grown in 96 well plates and exposed to the test compound for 48 hours. Compounds are tested at a single concentration, which is 10^-5 M for most compounds. The reported endpoint is percent growth (GI% or GIPRCNT), where numbers from 0 - 100% represent growth inhibition, and numbers from -100% - 0 represent cell death. For example, a value of 40 represents 60% growth inhibition. A value of 0 means no net growth occurred over the course of the experiment. […]
The panel holds about 83,000 compounds, 20% with a hit somewhere; the sample as a whole holds those more often. Activity calls are given as the source filed them. The calls were made as follows: active = growth percent below 10; inactive = the rest.
readout_label: growth

Summary: "CCOc1nc(-c2ccccc2)cc2c(O)c(C(=O)N/N=C/c3ccccc3)[nH]c(=O)c12" , MALME-3M melanoma, growth = 136% (inactive)

The compound "COc1cc(-c2nc3sccn3c2-c2ccnc(NCCNS(=O)(=O)c3ccccc3)n2)ccc1F" on MALME-3M melanoma: growth was 49.2% (inactive)

Lab note: compound "CCOC(=O)c1c(NC(=O)c2cccc(C(F)(F)F)c2)sc2c(CN(C)C)c(O)ccc12" tested on MALME-3M melanoma; recorded growth was -38.5% (active)

Short answer on MALME-3M melanoma for C1CCC([PH+](C2CCCCC2)C2CCCCC2[PH+](C2CCCCC2)C2CCCCC2)CC1.[Au].[CH-]1CCCCC1C1CCCC[N-]1 (centres undefined) , growth: -44.3% (active)

###

Test system: HT29 colon
assay_text: NCI-60 one-dose screen, 48 h (100 = growth as untreated, 0 = no growth, -100 = all killed)
assay_context: 10 µM unless noted
The panel holds about 83,000 compounds, 20% with a hit somewhere; the sample as a whole holds those more often. The source made the active and inactive calls. Rule for the calls: active = growth percent below 10; inactive = the rest.
Could you please report measured growth for the items listed next?

Reported growth for "Nc1n[nH]c2cccc(C#Cc3cccc(NC(=O)c4cc(F)cc(C(F)(F)F)c4)c3)c12" was 48.3% (inactive)

Data point: "COc1c(C(=O)Nc2ccc(C)c(Br)c2)ccc2ccccc12" ; growth = 78.5% (inactive)

Reported growth ( Cc1nc2sc(C(=O)Nc3cccc(Br)c3)c(N)c2cc1C(O)c1ccccc1 (stereo not given) ) = 18.1% (inactive)

Lab note: "COc1cc(OCc2cccc(Br)c2C)cc(OC)c1C=O" gave growth of 75% (inactive)

GET /value?item= "CCCC/C(CC)=N\NS(=O)(=O)c1ccc([N+](=O)[O-])cc1" &field=growth returns 106% (inactive)

Per the record, "Oc1c(Br)cc(Br)c2ccc(Cn3cc(-c4ccc(C(F)(F)F)cc4)nn3)nc12" has growth of 59% (inactive)

Value of growth reported for the compound "COc1ccc(OC)c(Nc2nnc(-c3ccc(O)c(OC)c3)o2)c1" is 99% (inactive)

# compound "COc1ccc2c(c1)CC[C@H](O)/C2=C/c1cc(OC)c(OC)c(OC)c1" ; its growth = 0.825% (active)

response.value for "O=C(Nc1ccc(OS(=O)(=O)c2ccc(F)cc2)cc1)C1CCCCCC1" (field: growth) = 31.6% (inactive)

Looking up "Cc1c[n+](Cc2ccc3ccccc3c2)cn1Cc1ccc2ccccc2c1" , I see its growth listed as -35.5% (active)

###

System: OVCAR-4 ovarian
assay_text: NCI-60 one-dose screen, 48 h (100 = growth as untreated, 0 = no growth, -100 = all killed)
assay_context: 10 µM unless noted
Procedure: Growth inhibition of the OVCAR-4 human tumor cell line is measured as a screen for anti-cancer activity. Cells are grown in 96 well plates and exposed to the test compound for 48 hours. Compounds are tested at a single concentration, which is 10^-5 M for most compounds. The reported endpoint is percent growth (GI% or GIPRCNT), where numbers from 0 - 100% represent growth inhibition, and numbers from -100% - 0 represent cell death. For example, a value of 40 represents 60% growth inhibition. […]
The panel holds about 83,000 compounds, 20% with a hit somewhere; the sample as a whole holds those more often.
readout_label: growth (%)
Kindly answer with a numeric value in %, unit omitted.

The recorded growth for "COc1ccc(-c2ccc(=O)oc2-c2cc(OC)c(OC)c(OC)c2)cc1O" is 39.8

For record "Nc1n[nH]c2cccc(C#Cc3cccc(C(=O)Nc4cc(C(F)(F)F)cc(C(F)(F)F)c4)c3)c12" the listed growth is 85.4

growth reading for "O=S(=O)(NCCCNc1nccc(-c2c(-c3ccc(F)c(O)c3)nc3sccn23)n1)c1ccccc1" : 75.6

Lookup result for "Cn1cc(-c2csc(-c3c[nH]c4ccccc34)n2)c2cnccc21" ; measured growth: 14.3

Consider "CCNCCNc1cc(C2CCCCC2)c(C#N)c2nc3ccccc3n12" . Its measured growth is 28.3

Per the record, "COc1ccc(/C=C/C(=O)c2cc3c(N)c(C(=O)Nc4cccc5ccccc45)sc3nc2C)cc1" has growth of 88.7

Measured growth, "O=C(N(c1ccccc1)c1ccccc1)n1cc(I)c2nc(Cl)nc(Cl)c21" : 68.4

The recorded growth for "CCOC(=O)c1ccc(NC(=O)c2nc(-c3cc(OC)c(OC)c(OC)c3)n(-c3ccc(Cl)cc3)n2)cc1" is 95.4

Record "CCSc1oc(-c2ccccc2)nc1[P+](c1ccccc1)(c1ccccc1)c1ccccc1" , field growth: 13.1

Item: "O=C(Nc1nc2ccccc2s1)c1ccc(F)cc1" | growth: 85.4

Reported growth for C=C(C)[C@@H]1CC[C@]2(C(=O)O)CC[C@]3(C)[C@H](CC[C@@H]4[C@@]5(C)CCC(NC(=O)c6cccc(OC(C)=O)c6OC(C)=O)C(C)(C)[C@@H]5CC[C@]43C)[C@@H]12 (stereo partly drawn) was 12.9

Quick note, growth for "CCOC(=O)c1cc2c(n1Cc1cc(OC)c(OC)c(OC)c1)-c1nc(N)sc1CCC2" landed at 65

growth reported for this compound "NC(=O)c1cc(I)ccc1NC(=O)/C=C/c1ccccc1" : 44.6

Recorded growth (compound "O=S(=O)(NCCNc1nccc(-c2c(-c3ccc(F)c(O)c3)nc3occn23)n1)c1ccc(Cl)cc1" ): 109

Sure, the documented growth for N#CC1=C(c2ccccc2)Nc2c(c(-c3ccc(Cl)cc3)nn2-c2ccccc2)C12C(=O)Nc1ccc(Cl)cc12 (stereo not drawn) is 87.8

Record summary for "CCCCn1c(=O)[nH]c(N)c([C@@H]2c3c([nH]c(=O)n(CCCC)c3=O)Oc3ccc4ccccc4c32)c1=O" : reported growth = 86.2

Documented growth of "[O-]/[N+](=C\c1ccc(-n2cc(Cc3ccccc3Cc3cn(-c4ccc(/C=[N+](/[O-])c5ccccc5)cc4)nn3)nn2)cc1)c1ccccc1" : 99.3

growth in this record for "CC(=O)c1c(C)nc2ccccc2c1/C=C/c1ccc(F)cc1" : 76.7

###

Tested on: NCI-H226 lung
assay_text: NCI-60 one-dose screen, 48 h (100 = growth as untreated, 0 = no growth, -100 = all killed)
assay_context: 10 µM unless noted
About 83,000 compounds went through this panel and 20% of them were active in at least one assay; those are over-represented in the sample as a whole.
Exercise: for every item that follows, state its recorded growth.
Note: unit % is implicit; provide only the numeric part.

Item "COc1ccc(CNc2c3ccccc3nc3ccccc23)cc1" was tested on NCI-H226 lung; the reported growth is 51.4

Assay NCI-H226 lung, sample "COc1ccc(/C=N/NC(=O)c2ccc(-n3cc(-c4ccccc4)nn3)cc2)cc1OC" , growth read: 92.7

Lab entry: NCI-H226 lung assay, compound "COc1ccccc1NC(=O)N=Nc1c(O)[nH]c2ccccc12" , growth = 86.5

With NCI-H226 lung as the test system, COC(=O)CC[C@H](C)[C@H]1CC[C@H]2[C@@H]3CC[C@@H]4CC5(CC[C@]4(C)[C@H]3CC(=O)[C@]12C)Nc1ccccc1NC5=NC(C)(C)C (stereo not given in full) showed growth of 65.4

Reported growth (NCI-H226 lung) for entry "N#Cc1c(-c2ccc(Cl)cc2)c(C#N)c2c(C#N)c(N)nn2c1N" is 86.8
